meta.source: PubChem BioAssay (NCI)

Each item that follows carries a reported growth inhibition.
Test Name: NCI Yeast Anticancer Drug Screen. Data for the mlh1 rad18 strain (AID 175)
Assay Setup: S. cerevisiae mlh1 rad18 strain growth inhibition; at 50.0 µM; active compounds read high
About 79,000 compounds went through this panel and 15% of them were active in at least one assay; those are over-represented in the sample as a whole.
Express your answer in %, writing the number without its unit.

Answered examples (5):
> print(dat)
                                   molecule  readout.number
1              O=C1c2cccnc2-c2nccc3ccnc1c23           -37.7
2      COc1cc(/C=N/NC(=O)c2cccs2)cc(OC)c1OC           -13.3
3  C=C1C(=O)O[C@@H]2C[C@@]3(C)CC(=O)C=C(C)[C@@H]3C[C@H]12           -16.4
4  COc1ccc(C(C#N)N2CCCC2)cc1 (stereo unspecified)           -9.75
5  CC12CC3CC(C(Cl)C(=O)O)(C1)CC(C(Cl)C(=O)O)(C3)C2 (stereo unspecified)            46.6

Query: Given "COc1ccc2cc1Oc1ccc(cc1)C[C@@H]1c3cc(c(OC)cc3CCN1C)Oc1c(OC)c(OC)cc3c1[C@H](C2)N(C)CC3" , state its recorded growth inhibition.
Response: -49.9

Query: Given CCCCCCC(=O)CCCC(C)CCCC(C)C (stereo unspecified) , state its recorded growth inhibition.
Response: -3.85

Query: Given "Cc1ccc(COC(=O)c2cccnc2)cc1" , state its recorded growth inhibition.
Response: 8.65

Query: Given "CS(=O)(=O)c1ccc(NN)c(S(C)(=O)=O)c1" , state its recorded growth inhibition.
Response: 11.8

Query: Given "CC(=O)[C-](C(C)=O)c1ccccc1.CC(=O)[C-](C(C)=O)c1ccccc1.CC(=O)[C-](C(C)=O)c1ccccc1.[Cl-].[Zr+4]" , state its recorded growth inhibition.
Response: 1.65

Query: Given C=CN1C(=O)N(C=C)C(C)(CC(C)C)C1=O (stereo unspecified) , state its recorded growth inhibition.
Response: 15.8
